Assay: cells
Settings: Human immunodeficiency virus 1, subtype B NL4-3, MT2
Reported pIC50 by item:
# pIC50 is unitless: minus log10 of the molar concentration; print number only

C=C(C)[C@@H]1CC[C@]2(CNCCCN3CCCC3=O)CC[C@]3(C)[C@H](CC[C@@H]4[C@@]5(C)CC=C(c6ccc(C(=O)O)cc6)C(C)(C)[C@@H]5CC[C@]43C)[C@@H]12    8.00

pIC50 lookup needed for C=C(C)[C@@H]1CC[C@]2(CN(CCCN3CCS(=O)(=O)CC3)C3CC3)CC[C@]3(C)[C@H](CC[C@@H]4[C@@]5(C)CC=C(c6ccc(C(=O)O)cc6)C(C)(C)[C@@H]5CC[C@]43C)[C@@H]12 , thanks.
7.37

Same read-out for C=C(C)[C@@H]1CC[C@]2(CNCCNC(C)=O)CC[C@]3(C)[C@H](CC[C@@H]4[C@@]5(C)CC=C(c6ccc(C(=O)O)cc6)C(C)(C)[C@@H]5CC[C@]43C)[C@@H]12 ?
7.43

Same read-out for C=C(C)[C@@H]1CC[C@]2(CNCCCN3CCN(C)CC3)CC[C@]3(C)[C@H](CC[C@@H]4[C@@]5(C)CC=C(c6ccc(C(=O)O)cc6)C(C)(C)[C@@H]5CC[C@]43C)[C@@H]12 ?
7.80

Values compiled from ChEMBL document CHEMBL4219213.
